- System: HeLa Kyoto
- Assay Protocol: solubility in G1/S (NP-40 vs SDS abundance) (log2 ratio); higher = more soluble
- Condition: cell cycle stage: G1/S
Observation Type: solubility in G1/S (log2)
Numbers only.

{"columns": ["Macromolecule Sequence", "solubility in G1/S (log2)"],
 "data": [
  ["MFRRKLTALDYHNPAGFNCKDETEFRNFIVWLEDQKIRHYKIEDRGNLRNIHSSDWPKFFEKYLRDVNCPFKIQDRQEAIDWLLGLAVRLEYGDNAEKYKDLVPDNSKTADNATKNAEPLINLDVNNPDFKAGVMALANLLQIQRHDDYLVMLKAIRILVQERLTQDAVAKANQTKEGLPVALDKHILGFDTGDAVLNEAAQILRLLHIEELRELQTKINEAIVAVQAIIADPKTDHRLGKVGR [C14ORF166]", 0.0935]
]}

Please turn your attention to the following entry.
Query: // returns reported solubility in G1/S (log2) for input MAERGELDLTGAKQNTGVWLVKVPKYLSQQWAKASGRGEVGKLRIAKTQGRTEVSFTLNEDLANIHDIGGKPASVSAPREHPFVLQSVGGQTLTVFTESSSDKLSLEGIVVQRAECRPAASENYMRLKRLQIEESSKPVRLSQQLDKVVTTNYKPVANHQYNIEYERKKKEDGKRARADKQHVLDMLFSAFEKHQYYNLKDLVDITKQPVVYLKEILKEIGVQNVKGIHKNTWELKPEYRHYQGEEKSD [GTF2F2]
Reply: 0.436

* * *

- Test system: HeLa Kyoto
- Assay Protocol: solubility change mitosis vs G1/S (difference of NP-40 vs SDS log2 ratios) (log2 ratio difference); higher = more soluble in mitosis
Task for the reader: assign each of the following sequences its reported solubility change mitosis (log2).
One number for each entry.

{"columns": ["Macromolecule Sequence", "System", "solubility change mitosis (log2)"],
 "data": [
  ["MAASEAAVVSSPSLKTDTSPVLETAGTVAAMAATPSARAAAAVVAAAARTGSEARVSKAALATKLLSLSGVFAVHKPKGPTSAELLNRLKEKLLAEAGMPSPEWTKRKKQTLKIGHGGTLDSAARGVLVVGIGSGTKMLTSMLSGSKRYTAIGELGKATDTLDSTGRVTEEKPYDKITQEDIEGILQKFTGNIMQVPPLYSALKKDGQRLSTLMKRGEVVEAKPARPVTVYSISLQKFQPPFFTLDVECGGGFYIRSLVSDIGKELSSCANVLELTRTKQGPFTLEEHALPEDKWTIDDIAQSLEHCSSLFPAELALKKSKPESNEQVLSCEYITLNEPKREDDVIKTC [TRUB1]", "HeLa Kyoto", -0.0378]
]}

From here, focus on the item given below.
Query: Give the reported solubility change mitosis (log2) for MARENGESSSSWKKQAEDIKKIFEFKETLGTGAFSEVVLAEEKATGKLFAVKCIPKKALKGKESSIENEIAVLRKIKHENIVALEDIYESPNHLYLVMQLVSGGELFDRIVEKGFYTEKDASTLIRQVLDAVYYLHRMGIVHRDLKPENLLYYSQDEESKIMISDFGLSKMEGKGDVMSTACGTPGYVAPEVLAQKPYSKAVDCWSIGVIAYILLCGYPPFYDENDSKLFEQILKAEYEFDSPYWDDISDSAKDFIRNLMEKDPNKRYTCEQAARHPWIAGDTALNKNIHESVSAQIRKNFAKSKWRQAFNATAVVRHMRKLHLGSSLDSSNASVSSSLSLASQKDCLAPSTLCSFISSSSGVSGVGAERRPRPTTVTAVHSGSK [CAMK1D] (system: HeLa Kyoto).
Reply: -0.0784

* * *

- System: HeLa Kyoto
- Assay Protocol: thermal stability score vs G1/S (z-score of summed log2 fold changes over temperatures); higher = more thermally stable than in G1/S
- Condition: cell cycle stage: early G1 (4.5 h after nocodazole release)
Observation Type: thermal stability score
Give bare numbers.

{"columns": ["Macromolecule Sequence", "Obs Value"],
 "data": [
  ["MGQCGITSSKTVLVFLNLIFWGAAGILCYVGAYVFITYDDYDHFFEDVYTLIPAVVIIAVGALLFIIGLIGCCATIRESRCGLATFVIILLLVFVTEVVVVVLGYVYRAKVENEVDRSIQKVYKTYNGTNPDAASRAIDYVQRQLHCCGIHNYSDWENTDWFKETKNQSVPLSCCRETASNCNGSLAHPSDLYAEGCEALVVKKLQEIMMHVIWAALAFAAIQLLGMLCACIVLCRRSRDPAYELLITGGTYA [TSPAN3]", -0.556]
]}

Query: Recorded thermal stability score for MSGDSSGRGPEGRGRGRDPHRDRTRSRSRSRSPLSPRSRRGSARERREAPERPSLEDTEPSDSGDEMMDPASLEAEADQGLCRQIRHQYRALINSVQQNREDILNAGDKLTEVLEEANTLFNEVSRAREAVLDAHFLVLASDLGKEKAKQLRSDLSSFDMLRYVETLLTHMGVNPLEAEELIRDEDSPDFEFIVYDSWKITGRTAENTFNKTHTFHFLLGSIYGECPVPKPRVDRPRKVPVIQEERAMPAQLRRMEESHQEATEKEVERILGLLQTYFREDPDTPMSFFDFVVDPHSFPRTVENIFHVSFIIRDGFARIRLDQDRLPVIEPVSINEENEGFEHNTQVRNQGIIALSYRDWEEIVKTFEISEPVITPSQRQQKPSA [NSMCE4A] , please?
Reply: -2.46

* * *

- System: HeLa Kyoto
- Assay Protocol: thermal stability score vs G1/S (z-score of summed log2 fold changes over temperatures); higher = more thermally stable than in G1/S
- Condition: cell cycle stage: early G1 (4.5 h after nocodazole release)
Observation Type: thermal stability score

Query: Recorded thermal stability score of MEAARTAVLRVKRKRSAEPAEALVLACKRLRSDAVESAAQKTSEGLERAAENNVFHLVATVCSQEEPVQPLLREVLRPSRDSQQRVRRNLRASAREVRQEGRYRVLSSRRSLGTTSSGQESEYTPGNPEAAGNSGFQLLDLVHEEGEPEAASAGSCKTSDPDVILCNSVELIRERLTVSEDGPGVRRQEEQKHDDYVYDIYYLETATPGWIENILSVQPYSQEWELVNDDQEPEDIYDDEDDENSENNWRNEYPEEESSDGDEDSRGSADYNSLSEEERGSSRQRMWSKYPLDVQKEFGYDSPHDLDSD [SLC7A6OS] , please.
Reply: -0.0342

* * *

Assign thermal stability score to each entry below.
- Tested on: HeLa Kyoto
- Assay Protocol: thermal stability score vs G1/S (z-score of summed log2 fold changes over temperatures); higher = more thermally stable than in G1/S
- Condition: cell cycle stage: mitosis
One number for each entry.

Example entries and their recorded answers appear below.
{"columns": ["Macromolecule Sequence", "System", "thermal stability score"],
 "data": [
  ["MSNKEGSGGFRKRKHDNFPHNQRREGKDVNSSSPVMLAFKSFQQELDARHDKYERLVKLSRDITVESKRTIFLLHRITSAPDMEDILTESEIKLDGVRQKIFQVAQELSGEDMHQFHRAITTGLQEYVEAVSFQHFIKTRSLISMDEINKQLIFTTEDNGKENKTPSSDAQDKQFGTWRLRVTPVDYLLGVADLTGELMRMCINSVGNGDIDTPFEVSQFLRQVYDGFSFIGNTGPYEVSKKLYTLKQSLAKVENACYALKVRGSEIPKHMLADVFSVKTEMIDQEEGIS [TSNAX]", "HeLa Kyoto", -1.45],
  ["MMEDDGQPRTLYVGNLSRDVTEVLILQLFSQIGPCKSCKMITEHTSNDPYCFVEFYEHRDAAAALAAMNGRKILGKEVKVNWATTPSSQKKDTSNHFHVFVGDLSPEITTEDIKSAFAPFGKISDARVVKDMATGKSKGYGFVSFYNKLDAENAIVHMGGQWLGGRQIRTNWATRKPPAPKSTQENNTKQLRFEDVVNQSSPKNCTVYCGGIASGLTDQLMRQTFSPFGQIMEIRVFPEKGYSFVRFSTHESAAHAIVSVNGTTIEGHVVKCYWGKESPDMTKNFQQVDYSQWGQWSQVYGNPQQYGQYMANGWQVPPYGVYGQPWNQQGFGVDQSPSAAWMGGFGAQPPQGQAPPPVIPPPNQAGYGMASYQTQ [TIAL1]", "HeLa Kyoto", -2.29],
  ["MREYKVVVLGSGGVGKSALTVQFVTGTFIEKYDPTIEDFYRKEIEVDSSPSVLEILDTAGTEQFASMRDLYIKNGQGFILVYSLVNQQSFQDIKPMRDQIVRVKRYEKVPLILVGNKVDLEPEREVMSSEGRALAQEWGCPFMETSAKSKSMVDELFAEIVRQMNYSSLPEKQDQCCTTCVVQ [RAP2C]", "HeLa Kyoto", -1.73],
  ["MSLYPSLEDLKVDKVIQAQTAFSANPANPAILSEASAPIPHDGNLYPRLYPELSQYMGLSLNEEEIRANVAVVSGAPLQGQLVARPSSINYMVAPVTGNDVGIRRAEIKQGIREVILCKDQDGKIGLRLKSIDNGIFVQLVQANSPASLVGLRFGDQVLQINGENCAGWSSDKAHKVLKQAFGEKITMTIRDRPFERTITMHKDSTGHVGFIFKNGKITSIVKDSSAARNGLLTEHNICEINGQNVIGLKDSQIADILSTSGTVVTITIMPAFIFEHIIKRMAPSIMKSLMDHTIPEV [SDCBP]", "HeLa Kyoto", -6.31]
]}

Query: Give its thermal stability score value. Item: MSAFDTNPFADPVDVNPFQDPSVTQLTNAPQGGLAEFNPFSETNAATTVPVTQLPGSSQPAVLQPSVEPTQPTPQAVVSAAQAGLLRQQEELDRKAAELERKERELQNTVANLHVRQNNWPPLPSWCPVKPCFYQDFSTEIPADYQRICKMLYYLWMLHSVTLFLNLLACLAWFSGNSSKGVDFGLSILWFLIFTPCAFLCWYRPIYKAFRSDNSFSFFVFFFVFFCQIGIYIIQLVGIPGLGDSGWIAALSTLDNHSLAISVIMMVVAGFFTLCAVLSVFLLQRVHSLYRRTGASFQQAQEEFSQGIFSSRTFHRAASSAAQGAFQGN [SCAMP2]
Reply: -3.07
